Attribution: patent US12617752B2

# assay.protocol: Particle size and PDI of lipid nanoparticles by dynamic light scattering
# Type: physicochemical
# details: lipid nanoparticles with luciferase mRNA; ionizable lipid/cholesterol/DSPC/DMG-PEG2000 50/38.5/10/1.5 mol%
measure: Particle-size distribution (PDI)

compound | result
CCCCCCCCC(=O)OCCC(C)(C)CCCCCN(CCO)CCCCCCC(=O)OCC(CCCCCCCC)CCCCCCCC [105b] | 0.16
CCCCCCCCCOC(=O)C(C)(C)CCCCCCN(CCO)CCCCCCOC(=O)OCCC(CCCCCC)CCCCCC [41a] | 0.13
CCCCCCCCCC(=O)OCCCCCCCN(CCO)CCCCCCC(C)(C)C(=O)OC(CCCCCCCC)CCCCCCCC | 0.029
CCCCCCCCCCCOC(=O)CCCCCN(CCO)CCCCCCC(C)(C)C(=O)OCC(CCCCCCC)CCCCCCC [14a] | 0.012
CCCCCCCCCC(=O)OCCCC(C)(C)CCCN(CCCCO)CCCCCCC(=O)OCC(CCCCCCCC)CCCCCCCC [84b] | 0.11
CCCCCCCCCC(=O)OCCC(C)(C)CCCCN(CCCO)CCCCCCC(=O)OCCC(CCCCCCC)CCCCCCC [103b] | 0.11

a: CCCCCCCCC(CCCCCCCC)OC(=O)C(C)(C)CCCCCCN(CCO)CCCCCC(=O)OCCCCCCCCCC(C)C [21a]
b: CCCCCCCCCC(=O)OCC(C)(C)CCCCCN(CCO)CCCCCCC(=O)OCC(CCCCCCCC)CCCCCCCC [67b]
Returns: the label, a or b , whose recorded Particle-size distribution (PDI) is the lower number. Answer = label.
a

a: CCCCCCCCCOC(=O)CCCCC(C)(C)CCN(CCO)CCCCCCCC(=O)OCC(CCCCCCC)CCCCCCC [26a]
b: CCCCCCCCCCCOC(=O)CCCCCN(CCCCO)CCCCCCC(C)(C)C(=O)OC(CCCCCCCC)CCCCCCCC [12a]
Param pair: a , b . Output: the one whose Particle-size distribution (PDI) is numerically greater. Answer = label.
a

1: CCCCCCCCCC(=O)OCCC(C)(C)CCCCN(CCO)CCCCCCCC(=O)OCC(CCCCCCC)CCCCCCC [56b]
2: CCCCCCCCCCOC(=O)CCCC(C)(C)CCN(CCO)CCCCCCCC(=O)OCCC(CCCCCC)CCCCCC [28a]
3: CCCCCCCCCC(=O)OCCC(C)(C)CCCCN(CCCCO)CCCCCCC(=O)OCCC(CCCCCCC)CCCCCCC [104b]
List items by Particle-size distribution (PDI) in falling order. A ranking is expressed here by listing the labels in the requested order.
1, 3, 2

A: CCCCCCCCCC(=O)OCCC(C)(C)CCCCCN(CCO)CCCCCCC(=O)OCCC(CCCCCCCC)CCCCCCCC [108b]
B: CCCCCCCCCC(=O)OCC1(CCCCCN(CCCCO)CCCCCCCC(=O)OC(CCCCCCCCC)CCCCCCCCC)CC1 [24b]
Returns: the label, A or B , whose recorded Particle-size distribution (PDI) is the lower number. Answer = label.
B
(B: 0.019, A: 0.16)

* * *

# assay.protocol: Particle size and PDI of lipid nanoparticles by dynamic light scattering
# Assay type: physicochemical
# details: lipid nanoparticles with luciferase mRNA; ionizable lipid/cholesterol/DSPC/DMG-PEG2000 50/38.5/10/1.5 mol%
measure: Particle-size distribution (PDI)

compound | Particle-size distribution (PDI)
CCCCCCCCCOC(=O)OCCCCCCN(CCCCO)CCCCCCC(C)(C)C(=O)OCCCC(CCCCC)CCCCC [39a] | 0.08
CCCCCCCCCCC(=O)OCCCC(C)(C)CCCN(CCO)CCCCCCC(=O)OCC(CCCCCCCCC)CCCCCCCCC [95b] | 0.15

1: CCCCCCCCCC(=O)OCC(C)(C)CCCCCN(CCCCO)CCCCCCOC(=O)OCC(CCCCCCCC)CCCCCCCC [35b]
2: CCCCCCCCCC(=O)OCC1(CCCCCN(CCCCCCCC(=O)OCC(CCCCCCC)CCCCCCC)C(=O)SCCCN(C)C)CC1 [43b]
Returns: the label, 1 or 2 , whose recorded Particle-size distribution (PDI) is the lower number. Answer = label.
2
